- Test system: MCF7 breast cancer cells
- Method summary: Cancer cell survival (CellTiter-Glo), MCF7
- Format: cell-based
- Conditions used: 10 mM, 72 h
Entries and their Cell survival at given concentration values follow.
Answer as a number with no unit attached.

Here are 2 molecules together with their reported answers.
{"columns": ["Molecule", "Cell survival at given concentration"],
 "data": [
  ["CC(O)CCO (stereo not shown)", 0.96],
  ["CC(O)CC(=O)O (stereo not drawn) [beta-hydroxybutyrate]", 0.91]
]}

Query string: Could you share which Cell survival at given concentration value was measured for CC(=O)O [acetate] ?
Result string: 0.91

Query string: Could you share which Cell survival at given concentration value was measured for CCCCC(=O)O [valerate] ?
Result string: 0.50
